Hey, just so you know, these numbers are from the supplement of paper PMC10126150.

System: ATP;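 note: ATP exposure 15 min at 22 °C before imaging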
method: switch fluorescence ratio, 500 uM ATP over buffer (Cy3 cluster intensity, sum of 5 cycles each) (fold (ratio)); higher = stronger signal-on switching upon ATP binding; sequences stand for … in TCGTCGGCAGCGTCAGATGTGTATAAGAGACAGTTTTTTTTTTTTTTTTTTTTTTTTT…TC
conditions used: aptamer strand: ATP DNA aptamer (quencher-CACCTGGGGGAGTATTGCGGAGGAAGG + anchor), 100 nM annealed; ATP concentration: 500 uM
Listing of recorded switch fluorescence ratio by entry.
Please give the numeric answer without any surrounding text.

CTCAGAAACA: 1.02
GGTTAAAATC: 1.02
TATGGAGGGA: 0.996
TAGCTAGACG: 1.01
AACTATAAAA: 1

Next, consider the following sequence.
Would you please give the reported switch fluorescence ratio of `CTGGTTAATT` with ATP? 0.973

----------
System: ATP;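 note: ATP exposure 15 min at 22 °C before imaging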
method: switch fluorescence ratio, 500 uM ATP over buffer (Cy3 cluster intensity, sum of 5 cycles each) (fold (ratio)); higher = stronger signal-on switching upon ATP binding; sequences stand for … in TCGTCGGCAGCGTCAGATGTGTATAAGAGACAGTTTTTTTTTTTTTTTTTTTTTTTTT…TC
conditions used: aptamer strand: ATP DNA aptamer (quencher-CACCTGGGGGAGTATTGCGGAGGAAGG + anchor), 100 nM annealed; ATP concentration: 500 uM
switch fluorescence ratio values, listed per item
Give the figure only, with no unit attached.

Use these answered entries as a reference point.
GTTTTAAGGG: 0.99
ACGTTGAAGT: 1.01

// below: switch fluorescence ratio requested for another sequence
Complete the entry with switch fluorescence ratio for `CAAAAGGAAA` 0.992

----------
Parameter: switch fluorescence ratio. Scope: all listed entries.
Tested on: ATP;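 note: ATP exposure 15 min at 22 °C before imaging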
method: switch fluorescence ratio, 500 uM ATP over buffer (Cy3 cluster intensity, sum of 5 cycles each) (fold (ratio)); higher = stronger signal-on switching upon ATP binding; sequences stand for … in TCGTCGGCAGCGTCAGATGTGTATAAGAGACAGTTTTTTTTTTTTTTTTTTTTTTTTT…TC
conditions used: aptamer strand: ATP DNA aptamer (quencher-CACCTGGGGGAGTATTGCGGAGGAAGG + anchor), 100 nM annealed; ATP concentration: 500 uM
Simply state the number, no unit and no words.

TGAGAGAGTG: 1.02
TTTTTAATCG: 1.01
GGGAAGTCCG: 0.974
GGTATGGGTC: 0.947
TTGTGGCGTG: 1

For the sequence `CATAACGTTA` , give its measured switch fluorescence ratio value. 1.03

Find the measured switch fluorescence ratio of `CGGGGAGCCA` and report it. 1

Annotate the sequence `GCATTCGGCT` with its measured switch fluorescence ratio. 1.04

Report measured switch fluorescence ratio; entry is `CCATTTGCGC` 1.02

Name the recorded switch fluorescence ratio of the sequence listed here: `AGGGAACCCT` 1.13

----------
Measured switch fluorescence ratio values are reported for all entries that follow.
Tested on: ATP;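 note: ATP exposure 15 min at 22 °C before imaging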
method: switch fluorescence ratio, 500 uM ATP over buffer (Cy3 cluster intensity, sum of 5 cycles each) (fold (ratio)); higher = stronger signal-on switching upon ATP binding; sequences stand for … in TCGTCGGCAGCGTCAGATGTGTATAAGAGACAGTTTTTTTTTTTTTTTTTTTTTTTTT…TC
conditions used: aptamer strand: ATP DNA aptamer (quencher-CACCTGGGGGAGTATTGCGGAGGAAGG + anchor), 100 nM annealed; ATP concentration: 500 uM
Output: the number by itself.

Example results:
CTTAATTTGA: 0.984
TAGCAAGTG: 1.04
AGATGCAGTA: 1.01

Indicate the recorded switch fluorescence ratio value for this sequence: `AAAAGCTCGT` 1

Quote switch fluorescence ratio reported for `GCTTATTTAA` please. 0.99

Input `ACGAAATTGG` , output reported switch fluorescence ratio. 1.04

For `TCAAGGGAAA` , write its switch fluorescence ratio. 1

Annotate the sequence `TGTATTCAGG` with its measured switch fluorescence ratio. 1.01

For the sequence `ACCATTAAAA` , give its measured switch fluorescence ratio value. 1

Let me know recorded switch fluorescence ratio for `GGTCTTACCA` , thanks. 0.984

Dear colleague, please send me the reported switch fluorescence ratio for `ACATATTACT` when you can. 1.13

Supply switch fluorescence ratio value. Item: `TGCTATAGAG` 1.05
